The origin of these recorded values is ChEMBL document CHEMBL4706586.

measurementTarget: D(4) dopamine receptor (Homo sapiens, UniProt P21917)
Sequence (P21917 whole entry): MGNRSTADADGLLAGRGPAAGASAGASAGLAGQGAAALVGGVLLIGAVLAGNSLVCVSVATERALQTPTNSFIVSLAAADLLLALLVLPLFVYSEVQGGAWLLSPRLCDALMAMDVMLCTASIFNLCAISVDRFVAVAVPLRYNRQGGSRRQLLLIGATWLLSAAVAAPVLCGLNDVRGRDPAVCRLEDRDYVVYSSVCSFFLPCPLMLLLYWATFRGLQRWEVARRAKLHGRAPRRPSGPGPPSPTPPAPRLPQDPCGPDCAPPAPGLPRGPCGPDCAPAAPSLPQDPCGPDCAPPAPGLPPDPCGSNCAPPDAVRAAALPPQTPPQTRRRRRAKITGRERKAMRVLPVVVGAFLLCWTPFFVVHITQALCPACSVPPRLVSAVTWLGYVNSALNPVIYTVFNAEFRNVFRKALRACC
Entries and their Ki values follow.
measurementName: Ki

* [O-][S+](CCNC1CCN(Cc2ccc(F)cc2)CC1)C(c1ccc(F)cc1)c1ccc(F)cc1 (centres undefined) | 76.8 µM
* O=C(c1ccccc1)N1CCC(NCCSC(c2ccc(F)cc2)c2ccc(F)cc2)CC1 | 4.11 µM
* O=C(c1ccc(F)cc1)N1CCC(NCC[S+]([O-])C(c2ccc(F)cc2)c2ccc(F)cc2)CC1 (centres undefined) | > 100 µM
* Fc1ccc(CN2CCC(NCCSC(c3ccc(F)cc3)c3ccc(F)cc3)CC2)cc1 | 0.98 µM
* O=C(c1ccc(F)cc1)N1CCC(NCCSC(c2ccc(F)cc2)c2ccc(F)cc2)CC1 | 9.02 µM
* OC(Cc1ccccc1)CN1CCC(NCCSC(c2ccc(F)cc2)c2ccc(F)cc2)CC1 (centres undefined) | 2.2 µM
* CC(C)(C)C(=O)N1CCC(NCCSC(c2ccc(F)cc2)c2ccc(F)cc2)CC1 | 11.9 µM
* OC(CNC1CCN(CCSC(c2ccc(F)cc2)c2ccc(F)cc2)CC1)Cc1ccccc1 (centres undefined) | 2.67 µM
* NC(=O)C[S+]([O-])C(c1ccccc1)c1ccccc1 (racemic) | > 100 µM

* * *

Entries and their Ratio Ki values follow.
methodNotes: Selectivity ratio of Ki for sigma 1 receptor in guinea pig brain cortex membranes to Ki for DAT in Sprague-Dawley rat striatum membranes
Type: cell membranes
measurementName: Ratio Ki

- Fc1ccc(C(SCCN2CCC(NCc3ccccc3)CC2)c2ccc(F)cc2)cc1: 0.56
- Fc1ccc(C(SCCNC2CCN(CCc3ccccc3)CC2)c2ccc(F)cc2)cc1: 1.83
- O=C(C1CC1)N1CCC(NCCSC(c2ccc(F)cc2)c2ccc(F)cc2)CC1: 0.26
- [O-][S+](CCNC1CCN(CC(O)Cc2ccccc2)CC1)C(c1ccc(F)cc1)c1ccc(F)cc1 (centres undefined): 3.82
- CC(C)(C)CN1CCC(NCC[S+]([O-])C(c2ccc(F)cc2)c2ccc(F)cc2)CC1 (centres undefined): 1.26
- O=C(c1ccc(F)cc1)N1CCC(NCC[S+]([O-])C(c2ccc(F)cc2)c2ccc(F)cc2)CC1 (centres undefined): 18.7
- O=C(c1ccc(F)cc1F)N1CCC(NCC[S+]([O-])C(c2ccc(F)cc2)c2ccc(F)cc2)CC1 (centres undefined): 0.3
- OC(CNC1CCN(CCSC(c2ccc(F)cc2)c2ccc(F)cc2)CC1)Cc1ccccc1 (centres undefined): 1.84

* * *

Species on record: Rattus norvegicus
methodNotes: Selectivity ratio of Ki for SERT in Sprague-Dawley rat midbrain membranes to Ki for DAT in Sprague-Dawley rat striatum membranes
Entries and their Ratio Ki values follow.
measurementName: Ratio Ki

- Fc1ccc(CN2CCC(NCCSC(c3ccc(F)cc3)c3ccc(F)cc3)CC2)cc1: 10.9
- Fc1ccc(C(SCCNC2CCN(Cc3ccccc3)CC2)c2ccc(F)cc2)cc1: 12.4
- O=C(c1ccc(F)cc1F)N1CCC(NCC[S+]([O-])C(c2ccc(F)cc2)c2ccc(F)cc2)CC1 (centres undefined): 8.17
- CC(O)CN1[C@H](C)CN(CCSC(c2ccc(F)cc2)c2ccc(F)cc2)C[C@@H]1C (some centres undefined): 641
- NC(=O)C[S+]([O-])C(c1ccc(F)cc1)c1ccc(F)cc1 (racemic): 11.9
- Fc1ccc(C(SCCN2CCC(NCc3ccccc3)CC2)c2ccc(F)cc2)cc1: 3.06
- CN(CC[S+]([O-])C(c1ccc(F)cc1)c1ccc(F)cc1)C1CCN(C(=O)c2ccccc2F)CC1 (centres undefined): 34
- O=C(c1ccccc1F)N1CCC(NCCSC(c2ccc(F)cc2)c2ccc(F)cc2)CC1: 7.61
- Fc1ccc(C(SCCNC2CCN(CC3CC3)CC2)c2ccc(F)cc2)cc1: 3.93
